These data points were gathered from the RepoRT retention time repository (doi:10.1021/acs.analchem.2c02893).

# protocol-details: RP, Thermo Scientific Acclaim RSLC 120 C18, 100 × 2.1 mm, 2.2 µm, 30 °C, 0.2 mL/min, estimated dead time 1.1 min; A: 90% water + 10% methanol + 0.01% formic acid + 5 mM ammonium formate, pH 3.61; B: methanol + 0.01% formic acid + 5 mM ammonium formate, pH 3.61; gradient (min/%B) 0/1 1/1 2/39 13/99.9 15/99.9 15.1/1 20.1/1
# test-context: stereoisomer not certain
Let's look at some molecules and their measured LC retention time.
readout-name: LC retention time (min)

>  <molecule>
CC1(C)C(C(=O)OC(C#N)c2cccc(Oc3ccccc3)c2)C1(C)C (stereo not given)

>  <readout-name>
LC retention time

>  <result-number>
12.9

$$$$
>  <molecule>
CN1CCN(CCCN2c3ccccc3Sc3ccc(Cl)cc32)CC1

>  <readout-name>
LC retention time

>  <result-number>
9.89

$$$$
>  <molecule>
CCN(CC)CCc1c[nH]c2ccccc12

>  <readout-name>
LC retention time

>  <result-number>
4.34

$$$$
>  <molecule>
CN1C(=O)CN=C(c2ccccc2Cl)c2cc(Cl)ccc21

>  <readout-name>
LC retention time

>  <result-number>
9.19

$$$$
>  <molecule>
Cc1c(OCC(F)(F)F)ccnc1CS(=O)c1nc2ccccc2[nH]1 (stereo not given)

>  <readout-name>
LC retention time

>  <result-number>
8.38

$$$$

* * *

# protocol-details: RP, Thermo Scientific Acclaim RSLC 120 C18, 100 × 2.1 mm, 2.2 µm, 30 °C, 0.2 mL/min, estimated dead time 1.1 min; A: 90% water + 10% methanol + 0.01% formic acid + 5 mM ammonium formate, pH 3.61; B: methanol + 0.01% formic acid + 5 mM ammonium formate, pH 3.61; gradient (min/%B) 0/1 1/1 2/39 13/99.9 15/99.9 15.1/1 20.1/1
# test-context: stereoisomer not certain
Please enter T where LC retention time is greater than or equal to 5 min, and F where it is lower.

>  <compound>
O=C(c1cccc2ccccc12)c1cn(CCCCCO)c2ccccc12 [JWH-018-M-N-5-OH-Pentyl]

>  <category-label>
T

$$$$
>  <compound>
COC(=O)C(C)Oc1ccc(Oc2ccc(Cl)cc2Cl)cc1 (stereo not given) [Diclofop-methyl]

>  <category-label>
T

$$$$
>  <compound>
CNCC(O)c1cccc(NS(C)(=O)=O)c1 (stereo not given) [Amidephrine]

>  <category-label>
F

$$$$
>  <compound>
CCCCNC(=O)NS(=O)(=O)c1ccc(N)cc1 [Carbutamide]

>  <category-label>
T

$$$$
>  <compound>
CC(C)NCC(O)COc1cccc2[nH]c3ccccc3c12 (stereo not given) [Carazolol]

>  <category-label>
T

$$$$

* * *

# protocol-details: RP, Thermo Scientific Acclaim RSLC 120 C18, 100 × 2.1 mm, 2.2 µm, 30 °C, 0.2 mL/min, estimated dead time 1.1 min; A: 90% water + 10% methanol + 0.01% formic acid + 5 mM ammonium formate, pH 3.61; B: methanol + 0.01% formic acid + 5 mM ammonium formate, pH 3.61; gradient (min/%B) 0/1 1/1 2/39 13/99.9 15/99.9 15.1/1 20.1/1
# test-context: stereoisomer not certain
The following compounds are listed with their measured LC retention time values.

>  <compound>
CC=CCC1=C(C)C(OC(=O)C2C(C=C(C)C)C2(C)C)CC1=O (centres undefined)

>  <output-unit>
min

>  <LC retention time>
12.9

$$$$
>  <compound>
O=C1Nc2ccc(Cl)cc2C(c2ccccc2Cl)=NC1O (centres undefined)

>  <output-unit>
min

>  <LC retention time>
8.36

$$$$
>  <compound>
COC(=O)C1C2CC3c4[nH]c5cc(OC)ccc5c4CCN3CC2CC(OC(=O)c2cc(OC)c(OC)c(OC)c2)C1OC (centres undefined)

>  <output-unit>
min

>  <LC retention time>
8.47

$$$$
>  <compound>
Nc1ccc2c(c1)C(c1ccccc1Cl)=NCC(=O)N2

>  <output-unit>
min

>  <LC retention time>
4.86

$$$$

* * *

# protocol-details: RP, Thermo Scientific Acclaim RSLC 120 C18, 100 × 2.1 mm, 2.2 µm, 30 °C, 0.2 mL/min, estimated dead time 1.1 min; A: 90% water + 10% methanol + 0.01% formic acid + 5 mM ammonium formate, pH 3.61; B: methanol + 0.01% formic acid + 5 mM ammonium formate, pH 3.61; gradient (min/%B) 0/1 1/1 2/39 13/99.9 15/99.9 15.1/1 20.1/1
# test-context: stereoisomer not certain
readout-name: log10(LC retention time) (log10 of the value in min)

>  <compound>
COc1ccc2cc(CCC(C)=O)ccc2c1 [Nabumetone]

>  <readout-name>
log10(LC retention time)

>  <result-number>
0.99

$$$$
>  <compound>
Cc1cccc(Nc2ccncc2S(=O)(=O)NC(=O)NC(C)C)c1 [Torasemide]

>  <readout-name>
log10(LC retention time)

>  <result-number>
0.82

$$$$
>  <compound>
O=C(Nc1ccc(F)cc1F)c1cccnc1Oc1cccc(C(F)(F)F)c1 [Diflufenican]

>  <readout-name>
log10(LC retention time)

>  <result-number>
1.07

$$$$
>  <compound>
CN1CCN=C(c2ccccc2)c2cc(Cl)ccc21 [Medazepam]

>  <readout-name>
log10(LC retention time)

>  <result-number>
1.01

$$$$
>  <compound>
O=c1[nH]c2ccccc2n1C1CCN(CCCC(c2ccc(F)cc2)c2ccc(F)cc2)CC1 [Pimozide]

>  <readout-name>
log10(LC retention time)

>  <result-number>
0.94

$$$$
>  <compound>
COc1ccccc1OCC(O)COC(N)=O (stereo not drawn) [Methocarbamol]

>  <readout-name>
log10(LC retention time)

>  <result-number>
0.72

$$$$
>  <compound>
CCc1cccc(C)c1N(C(=O)C(=O)O)C(C)C(=O)O (stereo not drawn)

>  <readout-name>
log10(LC retention time)

>  <result-number>
0.84

$$$$
>  <compound>
CCOP(=S)(OCC)OP(=S)(OCC)OCC [Sulfotepp]

>  <readout-name>
log10(LC retention time)

>  <result-number>
1.03

$$$$
>  <compound>
CCCNC(C)Cc1ccccc1 (stereo not drawn) [Amphetamine-N-Propyl]

>  <readout-name>
log10(LC retention time)

>  <result-number>
0.68

$$$$
>  <compound>
C=CCC1=C(C)C(OC(=O)C2C(C=C(C)C(=O)OC)C2(C)C)CC1=O (stereo not drawn) [Allethrin II]

>  <readout-name>
log10(LC retention time)

>  <result-number>
1.09

$$$$
>  <compound>
COc1ccc(Cc2cnc(N)nc2N)cc1OC [Diaveridine]

>  <readout-name>
log10(LC retention time)

>  <result-number>
0.59

$$$$
>  <compound>
CCC(C(=O)O)C1OC(C(C)C(O)C(C)C(=O)C(CC)C2OC3(C=CC(O)C4(CCC(C)(C5CCC(O)(CC)C(C)O5)O4)O3)C(C)CC2C)C(C)CC1C (stereo not drawn) [Narasin]

>  <readout-name>
log10(LC retention time)

>  <result-number>
1.21

$$$$
>  <compound>
CC(Cc1ccc(C(C)(C)C)cc1)CN1CC(C)OC(C)C1 (stereo not drawn) [Fenpropimorph]

>  <readout-name>
log10(LC retention time)

>  <result-number>
1.03

$$$$
>  <compound>
CCCOc1ccc(S(=O)(=O)NCCC2CCCN2C)cc1-c1nc2c(CCC)nn(C)c2c(=O)[nH]1 (stereo not drawn) [Udenafil]

>  <readout-name>
log10(LC retention time)

>  <result-number>
0.89

$$$$
>  <compound>
O=C(O)COc1nc(Cl)c(Cl)cc1Cl [Triclopyr]

>  <readout-name>
log10(LC retention time)

>  <result-number>
0.89

$$$$
>  <compound>
Cc1c(C(=O)NN2CCCCC2)nn(-c2ccc(Cl)cc2Cl)c1-c1ccc(Cl)cc1 [Rimonabant]

>  <readout-name>
log10(LC retention time)

>  <result-number>
1.11

$$$$
>  <compound>
CCCOc1nc2ccc(I)cc2c(=O)n1CCC [Proquinazid]

>  <readout-name>
log10(LC retention time)

>  <result-number>
1.12

$$$$
>  <compound>
CC(C)OC(=O)C(C)(C)Oc1ccc(C(=O)c2ccc(Cl)cc2)cc1 [Fenofibrate]

>  <readout-name>
log10(LC retention time)

>  <result-number>
1.10

$$$$
>  <compound>
CCCCCc1cc(O)c2c(c1)OC(C)(C)C1CCC(CO)=CC21 (stereo not drawn) [THC-OH. 11-OH-THC]

>  <readout-name>
log10(LC retention time)

>  <result-number>
1.10

$$$$
>  <compound>
COCCCNc1nc(NC(C)C)nc(SC)n1 [Methoprotryne]

>  <readout-name>
log10(LC retention time)

>  <result-number>
0.96

$$$$
>  <compound>
O=c1oc2ccccc2c(O)c1C1CC(c2ccc(-c3ccc(Br)cc3)cc2)Cc2ccccc21 (stereo not drawn) [Brodifacoum]

>  <readout-name>
log10(LC retention time)

>  <result-number>
1.11

$$$$
>  <compound>
NC(N)=NS(=O)(=O)c1ccc(N)cc1 [Sulfaguanidine]

>  <readout-name>
log10(LC retention time)

>  <result-number>
0.29

$$$$
>  <compound>
COC(C)C(O)(C(=O)OCC1=CC[N+]2([O-])CCC(O)C12)C(C)C (stereo not drawn) [Heliotrine-N-oxide]

>  <readout-name>
log10(LC retention time)

>  <result-number>
0.54

$$$$
>  <compound>
NCC(O)c1cccc(O)c1 (stereo not drawn) [Fenefrine-Nor]

>  <readout-name>
log10(LC retention time)

>  <result-number>
0.26

$$$$
>  <compound>
CN(C)P(=O)(OP(=O)(N(C)C)N(C)C)N(C)C [Schradan]

>  <readout-name>
log10(LC retention time)

>  <result-number>
0.73

$$$$
>  <compound>
N#Cc1ccc2c(c1)N(CCCN1CCC(O)CC1)c1ccccc1S2 [Periciazine]

>  <readout-name>
log10(LC retention time)

>  <result-number>
0.87

$$$$
>  <compound>
CCCCC(CC)CN1C(=O)C2C3C=CC(C3)C2C1=O (stereo not drawn) [MGK-264]

>  <readout-name>
log10(LC retention time)

>  <result-number>
1.06

$$$$
>  <compound>
CNCC(O)c1ccc(O)cc1 (stereo not drawn) [Synephrine]

>  <readout-name>
log10(LC retention time)

>  <result-number>
0.20

$$$$
>  <compound>
CCNc1nc(Cl)nc(NC(C)C)n1 [Atrazine]

>  <readout-name>
log10(LC retention time)

>  <result-number>
0.91

$$$$
>  <compound>
CC12CC3CC(C)(C1)CC(N)(C3)C2 [Memantine]

>  <readout-name>
log10(LC retention time)

>  <result-number>
0.84

$$$$
>  <compound>
COCCc1ccc(OCC(O)CNC(C)C)cc1 (stereo not drawn) [Metoprolol]

>  <readout-name>
log10(LC retention time)

>  <result-number>
0.69

$$$$
>  <compound>
N#CCCCCn1cc(C(=O)c2cccc3ccccc23)c2ccccc21 [AM-2232]

>  <readout-name>
log10(LC retention time)

>  <result-number>
0.99

$$$$
>  <compound>
O=C(O)c1cc(Oc2ccc(C(F)(F)F)cc2Cl)ccc1[N+](=O)[O-] [Acifluorfen]

>  <readout-name>
log10(LC retention time)

>  <result-number>
0.95

$$$$
>  <compound>
O=C(O)c1cccnc1Nc1cccc(C(F)(F)F)c1 [Niflumic acid]

>  <readout-name>
log10(LC retention time)

>  <result-number>
0.99

$$$$
>  <compound>
CN(C)CCC(c1ccc(Cl)cc1)c1ccccn1 (stereo not drawn) [Chlorpheniramine]

>  <readout-name>
log10(LC retention time)

>  <result-number>
0.80

$$$$
>  <compound>
OCc1ncc2n1-c1ccc(Cl)cc1C(c1ccccc1F)=NC2 [Midazolam -1-Hydroxy]

>  <readout-name>
log10(LC retention time)

>  <result-number>
0.93

$$$$
>  <compound>
CCOP(=S)(OCC)SCSP(=S)(OCC)OCC [Ethion]

>  <readout-name>
log10(LC retention time)

>  <result-number>
1.09

$$$$
>  <compound>
CCCCN(CC)C(=O)SCCC [Pebulate]

>  <readout-name>
log10(LC retention time)

>  <result-number>
1.06

$$$$
